# procedure text: physchem
# assay conditions: pH 7.1, aqueous buffer, thermodynamic from solid
observable: solubility

Qu. Dear colleague, please send me the reported solubility for Cl.Cl.N[C@@H](CSSC[C@H](N)C(=O)O)C(=O)O [L-cystine dihydrochloride, reference compound] when you can.
Ans. < 5 mM

----------
# procedure text: physchem
# assay conditions: water, thermodynamic from solid
Counter-ions that a name gives are not always drawn.
observable: solubility

Qu. Dear colleague, please send me the reported solubility for CC(C)(C)OC(=O)[C@@H](N)CSSC[C@H](N)C(=O)OC(C)(C)C [dihydrochloride] when you can.
Ans. ≥ 500 mM
